Listing of recorded koff by entry.
# ASSAY_TARGET: T1, monovalent hVISTA-ECD (human VISTA extracellular domain with His tail) (human, UniProt Q9H7M9 33-193)
# T1 construct: analyte flowed over captured antibody; also called huVISTA-His
# T1 sequence (Q9H7M9 other isoform, or with tags, fused parts or gaps limits assumed): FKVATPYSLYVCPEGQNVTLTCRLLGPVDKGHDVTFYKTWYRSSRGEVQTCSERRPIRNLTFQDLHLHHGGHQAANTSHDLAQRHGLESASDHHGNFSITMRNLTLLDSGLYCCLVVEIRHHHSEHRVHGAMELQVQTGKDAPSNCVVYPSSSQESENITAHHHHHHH
# MEASUREMENT_PROTOCOL: SPR, pH 6.0, average
Report only the number, with the unit s⁻¹ understood.

VISTA.4 A64G (41F11 Vk:A64G) (antibody, human IgG1, kappa, V domains shown, IgG1.3; also called P1-061520; P1-061520-10) VH: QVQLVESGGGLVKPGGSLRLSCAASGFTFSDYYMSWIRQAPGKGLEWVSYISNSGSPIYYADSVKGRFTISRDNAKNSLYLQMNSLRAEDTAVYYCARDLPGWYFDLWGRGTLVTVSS VL: EIVLTQSPATLSLSPGERATLSCRASQSVSSYLAWYQQKPGQAPRLLIYDASNRATGIPARFSGSGSGTDFTLTISSLEPEDFAVYYCQQRNNWPRTFGQGTKVEIKR :: 0.033

I have this binder here, P1-071801 (P1-070976_E97P) (antibody, human IgG1, kappa, V domains shown, IgG1.3) VH: QVQLVESGGGLVKPGGSLRLSCAASGFPFSDYYMSWIRQAPGKGLEWVSWISNSGEPIYYADSVKGRFTISRDNAKNSLYLQMNSLRAEDTAVYYCARHEPGWEFDLWGRGTLVTVSS VL: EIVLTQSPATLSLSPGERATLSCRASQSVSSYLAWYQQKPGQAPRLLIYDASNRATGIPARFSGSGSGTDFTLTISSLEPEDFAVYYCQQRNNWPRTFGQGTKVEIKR , and I need its recorded koff.
0.0016
